experimentalSystem: UniProt P07333
procedureDetails: KINOMEscan competition binding assay for CSF1R
Design: DNA tag for qPCR (not a peptide); host or cells: E. coli/T7 phage or HEK-293
conditionDetails: @ 0.1 uM; read-out: CSF1R kinase binding activity, Range
endpointLabel: inhibition at 0.1 µM

Here is how some compounds turned out for inhibition at 0.1 µM.
COc1cc2nccc(Oc3ccc(NC(=O)c4nn(CC5COC5)cc4OCC(F)(F)F)nc3)c2cc1OC
≥ 80%
CCC(=O)n1cc(OCC(F)(F)F)c(C(=O)Nc2ccc(Oc3ccnc4cc(OC)c(OC)cc34)cn2)n1
≥ 80%
COc1cc2nccc(Oc3ccc(NC(=O)c4nn(CCC5CCCC5)cc4OCC(F)(F)F)nc3)c2cc1OC
≥ 80%
COc1cc2nccc(Oc3ccc(NC(=O)c4nn(C5CCNC5)cc4OCC(F)(F)F)c(F)c3)c2cc1OC (stereo not shown)
< 50%
COc1cc2nccc(Oc3ccc(NC(=O)c4nn(C)cc4OCC(F)(F)F)cc3C)c2cc1OC
≥ 80%

Tested system UniProt P07333; inhibition at 0.1 µM recorded for COc1cc2nccc(Oc3ccc(NC(=O)c4nn(C5CCCC5)cc4OCC(F)(F)F)nc3)c2cc1OC was ≥ 80%

Tested system UniProt P07333; inhibition at 0.1 µM recorded for COc1cc2nccc(Oc3ccc(NC(=O)c4nn(CC5CCC5)cc4OCC(F)(F)F)nc3)c2cc1OC was ≥ 80%

###

experimentalSystem: CSF1R (Homo sapiens, UniProt P07333)
Sequence (P07333 20-972): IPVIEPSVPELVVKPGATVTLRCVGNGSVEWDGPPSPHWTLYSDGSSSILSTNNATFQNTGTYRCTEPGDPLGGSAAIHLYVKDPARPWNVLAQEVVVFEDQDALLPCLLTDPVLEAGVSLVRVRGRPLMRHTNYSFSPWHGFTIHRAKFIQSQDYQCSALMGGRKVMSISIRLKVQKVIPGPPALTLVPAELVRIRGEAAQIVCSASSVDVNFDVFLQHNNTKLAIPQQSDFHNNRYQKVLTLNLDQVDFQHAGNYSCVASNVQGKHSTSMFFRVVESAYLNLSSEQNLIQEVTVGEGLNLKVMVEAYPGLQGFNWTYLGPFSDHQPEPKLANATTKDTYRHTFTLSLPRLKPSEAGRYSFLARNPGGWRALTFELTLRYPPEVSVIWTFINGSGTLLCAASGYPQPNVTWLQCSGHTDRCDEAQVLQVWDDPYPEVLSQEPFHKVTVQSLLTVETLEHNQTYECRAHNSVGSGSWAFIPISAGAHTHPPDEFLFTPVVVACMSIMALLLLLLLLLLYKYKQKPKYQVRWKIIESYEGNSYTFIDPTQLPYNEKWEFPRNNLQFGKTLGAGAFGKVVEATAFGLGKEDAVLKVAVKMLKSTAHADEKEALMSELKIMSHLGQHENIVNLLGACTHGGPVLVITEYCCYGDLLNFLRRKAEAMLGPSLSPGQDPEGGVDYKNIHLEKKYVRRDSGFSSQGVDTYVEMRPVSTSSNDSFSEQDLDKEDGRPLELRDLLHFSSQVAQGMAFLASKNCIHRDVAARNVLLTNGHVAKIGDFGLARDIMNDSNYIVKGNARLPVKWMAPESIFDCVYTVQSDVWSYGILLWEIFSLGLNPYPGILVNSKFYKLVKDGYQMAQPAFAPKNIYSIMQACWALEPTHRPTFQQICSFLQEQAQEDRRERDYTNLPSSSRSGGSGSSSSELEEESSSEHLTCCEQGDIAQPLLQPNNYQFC
procedureDetails: KINOMEscan competition binding assay for CSF1R
Parameters: DNA tag for qPCR (not a peptide); host or cells: E. coli/T7 phage or HEK-293
conditionDetails: @ 0.1 uM; read-out: CSF1R kinase binding activity, Range
endpointLabel: inhibition at 0.1 µM

COc1cc2nccc(Oc3ccc(NC(=O)c4nn(CC(C)O)cc4OCC4CN(C)C4)nc3)c2cc1OC (centres unmarked)
< 50%
CNCCn1cc(OCC(F)(F)F)c(C(=O)Nc2ccc(Oc3ccnc4cc(OC)c(OC)cc34)cn2)n1
≥ 80%

Documented inhibition at 0.1 µM of COc1cc2nccc(Oc3ccc(NC(=O)c4nn(C5CC5)cc4OCC4CCC4)nc3)c2cc1OC : ≥ 80%

Documented inhibition at 0.1 µM of COc1cc2nccc(Oc3ccc(NC(=O)c4nn(C5CCOC5)cc4OCC(F)(F)F)c(F)c3)c2cc1OC (centres unmarked) : 50 to 80%

Documented inhibition at 0.1 µM of COc1cc2nccc(Oc3ccc(NC(=O)c4nn(CCOC5CC5)cc4OCC(F)(F)F)c(F)c3)c2cc1OC : ≥ 80%

Documented inhibition at 0.1 µM of COc1cc2nccc(Oc3ccc(NC(=O)c4nn(C5CCOCC5)cc4OCC(F)(F)F)nc3)c2cc1OC : ≥ 80%

Documented inhibition at 0.1 µM of CCn1nc(C(=O)Nc2ccc(Oc3ccnc4cc(OC)c(OC)cc34)cn2)c(OCC(F)(F)F)c1C : ≥ 80%

Documented inhibition at 0.1 µM of COc1cc2nccc(Oc3ccc(NC(=O)c4nn(C[C@@H](C)O)cc4OCC(F)(F)F)nc3)c2cc1OC : ≥ 80%

###

inhibition at 0.1 µM values by entry
experimentalSystem: CSF1R (Homo sapiens)
procedureDetails: KINOMEscan competition binding assay for CSF1R
Parameters: DNA tag for qPCR (not a peptide); host or cells: E. coli/T7 phage or HEK-293
conditionDetails: @ 0.1 uM; read-out: CSF1R kinase binding activity, Range

COCCOc1cn(CC(C)O)nc1C(=O)Nc1ccc(Oc2ccnc3cc(OC)c(OC)cc23)cn1 (stereo not drawn) [Compound 150]
50 to 80%

Documented inhibition at 0.1 µM of COc1cc2nccc(Oc3ccc(NC(=O)c4nn(C(C)(C)C)cc4OCC(F)(F)F)nc3)c2cc1OC [Compound 22] : ≥ 80%

###

inhibition at 0.1 µM values by entry
experimentalSystem: UniProt P07333
procedureDetails: KINOMEscan competition binding assay for CSF1R
Set-up: DNA tag for qPCR (not a peptide); host or cells: E. coli/T7 phage or HEK-293
conditionDetails: @ 0.1 uM; read-out: CSF1R kinase binding activity, Range

Here is how some compounds turned out for inhibition at 0.1 µM.
CCCn1cc(OCCNC)c(C(=O)Nc2ccc(Oc3ccnc4cc(OC)c(OC)cc34)cn2)n1 [Compound 140]
< 50%
COc1cc2nccc(Oc3ccc(NC(=O)c4nn(C5CC5)cc4OCC4COC4)nn3)c2cc1OC [Compound 161]
< 50%
COc1cc2nccc(Oc3ccc(NC(=O)c4nn(CCN)cc4OCC(F)(F)F)cn3)c2cc1OC [Compound 135]
< 50%
COc1cc2nccc(Oc3ccc(NC(=O)c4nn(CC5COC5)cc4OCC(F)(F)F)c(F)c3)c2cc1OC [Compound 95]
50 to 80%

Documented inhibition at 0.1 µM of COc1cc2nccc(Oc3ccc(NC(=O)c4nc(CCC(F)(F)F)oc4CCC4CCC4)nc3)c2cc1OC [Compound 176] : < 50%

Documented inhibition at 0.1 µM of COc1cc2nccc(Oc3ccc(NC(=O)c4nn(C5CC5)cc4OC(C)C)nn3)c2cc1OC [Compound 147] : ≥ 80%

Documented inhibition at 0.1 µM of CCCn1cc(OCC(F)(F)F)c(C(=O)Nc2ccc(Oc3ccnc4cc(OC)c(OC)cc34)c(F)c2)n1 [Compound 25] : ≥ 80%

Documented inhibition at 0.1 µM of COc1cc2nccc(Oc3ccc(NC(=O)c4nn(C5CCOC5)cc4OCC(F)(F)F)cc3F)c2cc1OC (stereo not shown) [Compound 55] : 50 to 80%

Documented inhibition at 0.1 µM of COc1cc2nccc(Oc3ccc(NC(=O)c4nn(C5CCCC5)cc4OCC(F)(F)F)nn3)c2cc1OC [Compound 121] : ≥ 80%

Documented inhibition at 0.1 µM of COc1cc2nccc(Oc3ccc(NC(=O)c4nn(C5CC5)cc4OCCF)nc3)c2cc1OC [Compound 110] : ≥ 80%
